Quick list: koff per entry.
target: recombinant GST-SNAP25197 (UniProt P60880 1-197)
Sequence (P60880 1-197 limits assumed): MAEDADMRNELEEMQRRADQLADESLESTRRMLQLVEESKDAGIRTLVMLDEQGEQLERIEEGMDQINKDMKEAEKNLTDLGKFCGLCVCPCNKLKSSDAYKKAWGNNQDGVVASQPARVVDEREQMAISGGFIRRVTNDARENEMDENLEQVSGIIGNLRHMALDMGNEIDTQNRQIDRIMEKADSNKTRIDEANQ
reported metric: koff (s⁻¹)

[
  {
    "binder": "C24 IgG (antibody, V domains shown) VH: EVKLVESGGGLVQPKGSLKLSCAASGYTFNTYAMNWVRQAPGKGLEWVARIRSKSNNYTTYYADSVKDRFTISRDDSQSMLYLQINNLKTEDTAMYYCVGQILYYYVGSPAWFAYWGQGTLVTVSA VL: DIVMTQSPASLAVSLGQRATISCRASKSVSTSGYSYMHWYQQKPGQPPKLLIFLASNLESGVPARFSGSGSGTDFTLNIHPVEEEDAATYYCQHSRELPWTFGGGTKLEIK",
    "reported metric": "koff",
    "reported relation": "=",
    "test result": "1e-07"
  },
  {
    "binder": "C7 IgG (antibody, V domains shown, also called C7 IgG2a) VH: QVQLVETGGGLVQPKGSLKLSCAASGFTFNTNAMNWVRQAPGKGLEWVARIRSKSNNYATYYADSVKDRFTISRDDSQSLLYLQMNNLKTEDTAMYYCVYGRSYGGLSYWGQGTLVTVSA VL: DIVMTQSPASLAVSLGQRATISCRASKSVSSSGYSYMHWYQQKPGQPPKLLIYLASNLESGVPARFSGSGSGTDFTLNIHPVEEEDAATYYCQHSRELPLTFGAGTKLELK",
    "reported metric": "koff",
    "reported relation": "=",
    "test result": "1e-07"
  },
  {
    "binder": "C4 IgG (antibody, V domains shown) VH: DVKLQESGPGLVKPSQSLSLTCTVTGYSITSDYAWNWIRQFPGNKLEWMGYISYSVGTRYNPSLKSRISITRDTSKNQFFLLLKSVTNEDTATYFCARKGEYGFAYWGQGTLVTVSA VL: DIVMTQSPASLAVSLGQRATISCRASKSVSTSGYSYMHWYQQKPGQPPKLLIYLASNLESGVPARFSGSGSGTDFTLNIHPVEEEDAATYYCQHSRELPLTFGAGTKLELK",
    "reported metric": "koff",
    "reported relation": "=",
    "test result": "1e-07"
  },
  {
    "binder": "D3 IgG (antibody, V domains shown) VH: EVQLEESGGGLVQPGGSLKLSCAASGFTFSNYGMSWVRQTPDKRLELVATINSNGGTTYYPDSVKGRFTISRDNAKNTLYLQMSSLKSEDSAMYYCARDRDAMDYWGQGTSVTVSS VL: DVLMTQTPLSLPVSLGDQASISCRSSQSIVNSHGNTYLEWYLQKPGQSPKLLIYKVSNRFSGVPDRFSGSGSGTDFTLKISRVEAEDLGVYYCFQGSHVPWTFGGGTKLEIK",
    "reported metric": "koff",
    "reported relation": "≤",
    "test result": "1e-07"
  },
  {
    "binder": "C14 IgG (antibody, V domains shown) VH: EVKLVESGGGLVQPKGSLKLSCAASGFTFNTNAMNWVRQAPGKGLEWVARIRSKSDNYATYYADSVKDRFTISRDDSPSMLYLQMNNLKTEDTAMYYCVYGRSYGGLGYWGQGTLVTVSA VL: DIVLTQSPASLAVSLGQRATISCRASKSVSTSGYSYVHWYQQKPGQPPKLLIYLASNLESGVPARFSGSGSGTDFTLNIHPVEEEDAATYYCQHSRELPLTFGAGTKLELK",
    "reported metric": "koff",
    "reported relation": "≤",
    "test result": "1e-07"
  }
]

FYI, the data here is from patent EP4796630A2.
